# Tested System: CCR2 (Homo sapiens, UniProt P41597)
# Construct: Membranes were prepared from THP-1 cells; endogenous in cells
# Sequence (P41597 1-360 isoform P41597-2): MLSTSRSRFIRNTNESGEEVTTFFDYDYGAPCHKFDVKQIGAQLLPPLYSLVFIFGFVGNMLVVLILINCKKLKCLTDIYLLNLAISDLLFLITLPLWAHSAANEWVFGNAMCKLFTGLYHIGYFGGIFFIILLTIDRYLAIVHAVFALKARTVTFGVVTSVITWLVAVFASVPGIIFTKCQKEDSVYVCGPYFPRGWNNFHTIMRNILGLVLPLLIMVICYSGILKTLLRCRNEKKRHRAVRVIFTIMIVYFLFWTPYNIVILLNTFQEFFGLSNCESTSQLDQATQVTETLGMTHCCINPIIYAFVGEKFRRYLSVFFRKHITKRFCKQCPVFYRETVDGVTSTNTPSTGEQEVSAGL
# Protocol: CCR2 receptor membrane binding assay ([125I]MCP-1, THP-1 cell membranes, SPA beads)
# Condition Details: dissociation constant hKi; [125I]MCP-1 binding to THP-1 membranes
pKi values for the molecules below.
Recall that pKi is obtained by taking minus log10 of the concentration measured in molar.

As a guide, the following entries are already answered.
CNC(=O)[C@@H]1CCN(C2CCN(C(=O)c3ncnc(NCc4ccc(Cl)c(Cl)c4)c3C)CC2)C1 | 6.31
Cc1ccc(CNc2ncnc(C(=O)N3CCC(N4CCC(N(C)S(C)(=O)=O)CC4)CC3)c2C)cc1Cl | 7.26
Cc1c(NCCc2ccc(Cl)c(Cl)c2)ncnc1C(=O)N1CCC(N2CCOC(C)C2)CC1 (stereo not shown) | 6.88

Form field pKi for item CC(=O)N(C)C1CCN(C2CCN(C(=O)c3ncnc(NCc4ccc(Cl)c(Cl)c4)c3C)CC2)CC1 on CCR2 (Homo sapiens, UniProt P41597): 6.31

---

In this section we review reported pKi values for a set of molecules.
# Tested System: CCR2 (Homo sapiens)
# Construct: Membranes were prepared from THP-1 cells; endogenous in cells
# Sequence (P41597 1-360 isoform P41597-2): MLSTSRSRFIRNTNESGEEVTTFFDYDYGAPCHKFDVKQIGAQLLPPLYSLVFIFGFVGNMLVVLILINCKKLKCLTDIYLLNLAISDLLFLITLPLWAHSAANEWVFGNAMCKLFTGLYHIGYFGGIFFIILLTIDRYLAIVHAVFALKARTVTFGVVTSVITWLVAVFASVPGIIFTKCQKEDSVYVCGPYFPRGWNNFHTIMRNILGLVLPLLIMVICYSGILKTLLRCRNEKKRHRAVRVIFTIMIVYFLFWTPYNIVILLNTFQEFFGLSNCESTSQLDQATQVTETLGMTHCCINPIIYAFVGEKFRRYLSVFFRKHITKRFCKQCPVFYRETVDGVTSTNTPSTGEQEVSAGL
# Protocol: CCR2 receptor membrane binding assay ([125I]MCP-1, THP-1 cell membranes, SPA beads)
# Condition Details: dissociation constant hKi; [125I]MCP-1 binding to THP-1 membranes
# Protocol: The above exemplary substances have been tested for binding to CCR2 using a binding assay as outlined herein below: THP-1 cells (human acute monocytic leukaemia cells) were cultured under standardized conditions at 37° C. and 5% CO2 in a humidified incubator. […] Perkin Elmer NEX 332 Jod 125 MCP-1, Stock: 2200 Ci/mmol solved in 2000 μl assay buffer, stored at −20° C. […] Bound radioactivity was determined by scintillation counter after 8 h. […]
A value of pKi is the negative decimal logarithm of a concentration given in moles per litre.

Example entries and their recorded answers appear below.
Cc1nc(NCC2CCC(c3cccc(C(F)(F)F)c3)O2)c(C)c(C(=O)N2CCC(N3CCC(N(C)S(C)(=O)=O)CC3)CC2)n1 (stereo not shown) [Example 159qa] | 7.72
Cc1c(NCc2ccc3occc3c2)ncnc1C(=O)N1CCC(N2CCC(O)CC2)CC1 | 5.68
COc1ccc(CCNc2ncnc(C(=O)N3CCC(N4CCCCC4)CC3)c2C)cc1Cl | 6.11

Field: next molecule
Bench note, CCR2 (Homo sapiens): entry Cc1c(NCc2cccc(C(F)(F)F)c2)ncnc1C(=O)N1CCC(N2CCC(O)CC2)CC1 , its pKi = 5.80
